Test system: Escherichia coli TOP10;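 also: peptides expressed intracellularly from a pBAD plasmid library in pooled LB shake-flask culture, induced with 0.3% L-arabinose, DNA abundance read by NGS, three biological replicates, DESeq2 with apeglm shrinkage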
Experiment: shrunken log2 fold change of peptide-encoding DNA abundance (4.5 h post-induction vs induction); higher = less antimicrobial activity (less host growth inhibition)
Conditions: time post-induction: 4.5 h; library: site-saturation at positions 5, 18, 19, 20
measuredAttribute: shrunken log2 fold change
Field format: numeric only.

Answered examples (3):
| sequence | measuredOn | shrunken log2 fold change |
| --- | --- | --- |
| RRIRARPPRLPRPRPRPRESPRP | Escherichia coli TOP10 | 0.198 |
| RRIRVRPPRLPRPRPRPQQLPRP | Escherichia coli TOP10 | -0.0555 |
| RRIRRRPPRLPRPRPRPTNYPRP | Escherichia coli TOP10 | -0.0945 |

Problem: Entry RRIRLRPPRLPRPRPRPSANPRP needs its shrunken log2 fold change filled in; supply it.
Solution: -0.0303

Problem: Entry RRIRFRPPRLPRPRPRPNFTPRP needs its shrunken log2 fold change filled in; supply it.
Solution: -0.0305

Problem: Entry RRIRYRPPRLPRPRPRPTILPRP needs its shrunken log2 fold change filled in; supply it.
Solution: -0.521

Problem: Entry RRIRNRPPRLPRPRPRPVWVPRP needs its shrunken log2 fold change filled in; supply it.
Solution: 0.0909

Problem: Entry RRIRIRPPRLPRPRPRPWENPRP needs its shrunken log2 fold change filled in; supply it.
Solution: -0.00674

Problem: Entry RRIRGRPPRLPRPRPRPIPYPRP needs its shrunken log2 fold change filled in; supply it.
Solution: -0.1

Problem: Entry RRIRMRPPRLPRPRPRPYKHPRP needs its shrunken log2 fold change filled in; supply it.
Solution: -0.872

Problem: Entry RRIRIRPPRLPRPRPRPSMMPRP needs its shrunken log2 fold change filled in; supply it.
Solution: -0.886

Problem: Entry RRIRPRPPRLPRPRPRPTAWPRP needs its shrunken log2 fold change filled in; supply it.
Solution: 0.666
